Task for the reader: assign each of the following molecules its reported inhibition at 0.01 µM.
subject-of-test: KRas G12S (Homo sapiens, UniProt P01116, G12S)
Sequence (P01116 1-169 isoform P01116-2 G12S): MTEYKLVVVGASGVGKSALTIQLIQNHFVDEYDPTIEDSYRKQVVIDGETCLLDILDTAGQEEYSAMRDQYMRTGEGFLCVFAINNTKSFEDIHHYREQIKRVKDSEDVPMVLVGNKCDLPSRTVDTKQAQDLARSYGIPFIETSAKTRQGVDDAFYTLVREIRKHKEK
Assay type: binding
condition-label: single point, 10 nM compound, read-out: Binding to KRas (% inhibition at 10 nM) G12S
One number for each entry, in %.

CCc1c(F)ccc2cc(O)cc(N3CCc4c(nc(OC[C@@]56CCCN5C[C@H](F)C6)nc4N4CCCn5nc(C(=O)NCCOC)cc5C4)C3)c12 | 98
CCc1c(F)ccc2cc(O)cc(N3CCc4c(nc(OC[C@@]56CCCN5C[C@H](F)C6)nc4N4CCCn5nc(C(=O)N(C)C)nc5C4)C3)c12 | 100
CCc1c(F)ccc2cc(O)cc(N3CCc4c(nc(OC[C@@]56CCCN5C[C@H](F)C6)nc4N4CCCn5nc(C(=O)NC(C)C)c(C)c5C4)C3)c12 | 96
CCc1c(F)ccc2cc(O)cc(N3CCc4c(nc(OC[C@@]56CCCN5C[C@H](F)C6)nc4N4CCCn5nc(N)c(Cl)c5C4)C3)c12 | 99
CCc1c(F)ccc2cc(O)cc(N3CCc4c(nc(OC[C@@]56CCCN5C[C@H](F)C6)nc4N4CCCn5nc6c(c5C4)CCCNC6=O)C3)c12 | 100

Attention now shifts to the item below.
Prompt line: Fill in: inhibition at 0.01 µM of `CCc1c(F)ccc2cc(O)cc(N3CCc4c(nc(OC[C@@]56CCCN5C[C@H](F)C6)nc4N4CCCCn5nc(C(=O)N6CCOCC6)cc5C4)C3)c12` is ___
Response line: 99
